Values compiled from the METLIN SMRT retention time set (Domingo-Almenara et al. 2019).

Assay explanation: gradient 5% acetonitrile 3 min, to 50% in 2 min, to 85% in 15 min, held 3 min, 100 µL/min
Assay conditions: column: Zorbax Extend-C18 2.1 x 50 mm; eluents: water / acetonitrile, 0.1% formic acid
Parameter RP-LC retention time: see the listing below.
Readout name: RP-LC retention time

- Molecule: "CCc1nnc2ccc(NCC3CCCO3)nn12 (stereo not given)"
  Readout name: "RP-LC retention time"
  Value: "646 s"
- Molecule: "O=C(Cn1nc(N2CCCC2)c2ccccc2c1=O)Nc1ccc2c(c1)OCO2"
  Readout name: "RP-LC retention time"
  Value: "854 s"
- Molecule: "CCN(CC)CCNC(=S)Nc1ccc2nc(N3CCN(CC)CC3)cc(C)c2c1"
  Readout name: "RP-LC retention time"
  Value: "493 s"
- Molecule: "Cc1ccc(C2CC(=O)N(c3ccc(F)cc3F)C(=O)C2)cc1"
  Readout name: "RP-LC retention time"
  Value: "987 s"
- Molecule: "CCc1nn2c(CNS(=O)(=O)c3ccc4c(c3)CCC4)c(-c3ccccc3)nc2s1"
  Readout name: "RP-LC retention time"
  Value: "1020 s"
- Molecule: "Cc1cccc(CN2C(=O)CN(S(C)(=O)=O)CC2(C)C(=O)NCc2ccc(F)cc2)c1 (stereo not given)"
  Readout name: "RP-LC retention time"
  Value: "856 s"
- Molecule: "O=C(CN1CC=C(c2cnn(-c3ccc(F)cc3)c2)CC1)NCc1ccco1"
  Readout name: "RP-LC retention time"
  Value: "658 s"
- Molecule: "CC(C)NC(=O)C1COC2(CCN(C(=O)c3cccc(Cl)c3)CC2)N1C(=O)c1ccccc1 (stereo not given)"
  Readout name: "RP-LC retention time"
  Value: "725 s"
- Molecule: "CCOC(=O)C(C)Sc1nnc2n1CCN2c1ccc(F)cc1 (stereo not given)"
  Readout name: "RP-LC retention time"
  Value: "718 s"
- Molecule: "O=C(Nc1ccc(F)cc1F)c1cc2n(n1)CCCC2"
  Readout name: "RP-LC retention time"
  Value: "912 s"
